Recorded measurements of viability at 0.01 µM, one per entry
# Test system: senescent IMR90 ER:RAS cells (4-OHT-induced)
# Assay summary: Nuclei count (Hoechst, high content imaging) senolytic assay, oncogene-induced senescence (OIS) model, senescent cells
# Assay type: cell-based, human
# Assay setup: Homo sapiens, IMR-90, 72 h, Senescent, log (dose) [M] -8, 72 h, mean n=3 (Fig 3C); read-out: Mean % Cell Survival

Molecule	Measured target	viability at 0.01 µM
O=c1c(O)c(-c2ccc(O)cc2)oc2c(O)c(O)cc(O)c12 [Herbacetin, herbacetin]	senescent IMR90 ER:RAS cells (4-OHT-induced)	97.5%
Cc1cc2c(C(C)C)c(O)c(O)c(C=O)c2c(O)c1-c1c(C)cc2c(C(C)C)c(O)c(O)c(C=O)c2c1O [Gossypol, gossypol]	senescent IMR90 ER:RAS cells (4-OHT-induced)	116%
COc1cc(O)c2c(=O)cc(-c3ccc(OC)c(-c4c(O)cc(O)c5c(=O)cc(-c6ccc(O)cc6)oc45)c3)oc2c1 [Ginkgetin, ginkgetin]	senescent IMR90 ER:RAS cells (4-OHT-induced)	110%
Cc1cnc(C(=O)N[C@H]2CCCCC/C=C\[C@@H]3C[C@@]3(C(=O)NS(=O)(=O)C3CC3)NC(=O)[C@@H]3C[C@@H](Oc4nc5ccccc5c5ccccc45)CN3C2=O)cn1 [Paritaprevir, paritaprevir, reference compound]	senescent IMR90 ER:RAS cells (4-OHT-induced)	70.3%
COC[C@H]1C[C@@H](c2nc(-c3ccc4c(c3)COc3cc5c(ccc6nc([C@@H]7CC[C@H](C)N7C(=O)[C@@H](NC(=O)OC)C(C)C)[nH]c65)cc3-4)c[nH]2)N(C(=O)[C@H](NC(=O)OC)c2ccccc2)C1 [Velpatasvir, velpatasvir, reference compound]	senescent IMR90 ER:RAS cells (4-OHT-induced)	100%
CO[C@H]1C[C@@H]2CC[C@@H](C)[C@@](O)(O2)C(=O)C(=O)N2CCCC[C@H]2C(=O)O[C@H]([C@H](C)C[C@@H]2CC[C@@H](O)[C@H](OC)C2)CC(=O)[C@H](C)/C=C(\C)[C@@H](O)[C@@H](OC)C(=O)[C@H](C)C[C@H](C)/C=C/C=C/C=C/1C [Rapamycin, rapamycin, reference compound]	senescent IMR90 ER:RAS cells (4-OHT-induced)	92%
CO[C@H]1C[C@@H]2CC[C@@H](C)[C@@](O)(O2)C(=O)C(=O)N2CCCC[C@H]2C(=O)O[C@H]([C@H](C)C[C@@H]2CC[C@@H](OCCO)[C@H](OC)C2)CC(=O)[C@H](C)/C=C(\C)[C@@H](O)[C@@H](OC)C(=O)[C@H](C)C[C@H](C)/C=C/C=C/C=C/1C [Everolimus, everolimus, reference compound]	senescent IMR90 ER:RAS cells (4-OHT-induced)	93.7%
COc1cc(/C=C/C(=O)O[C@H]2CC[C@]34C[C@]35CC[C@]3(C)[C@@H]([C@H](C)CCC=C(C)C)CC[C@@]3(C)[C@@H]5CC[C@H]4C2(C)C)ccc1O [Gamma oryzanol, gamma oryzanol]	senescent IMR90 ER:RAS cells (4-OHT-induced)	125%
O=c1cc(-c2ccc(O)cc2)oc2cc(O)c(O)c(O)c12 [Scutellarein, scutellarein]	senescent IMR90 ER:RAS cells (4-OHT-induced)	100%
